# System: OVCAR-5
# protocol-summary: Growth inhibition of human OVCAR5 cells
# Type: functional
measured-attribute: GI50

* C=C1CCC[C@H]2[C@](C)(CC[C@]3(C)CC[C@H]([C@@H](C)C(=O)O)OO3)[C@@H](C)CC[C@]12C | 1.74 µM
* CC1=C(CC/C(C)=C/CC[C@@]2(C)CC[C@H]([C@H](C)C(=O)O)OO2)C(C)(C)CCC1 | > 5 µM
* COC(=O)[C@H](C)[C@H]1CC[C@@](C)(CCC2=C(C)CCCC2(C)C)OO1 | > 25 µM
* C=C1CCCC(C)(C)C1CC[C@]1(C)CC[C@H]([C@@H](C)C(=O)OC)OO1 (stereo not given in full) | 4.76 µM
* CC(=O)CC/C=C(\C)CCC1=C(C)CCCC1(C)C | > 15 µM
* C=C1CCCC(C)(C)C1CCC1(C)CC[C@H]([C@@H](C)C(=O)O)OO1 (single isomer, unassigned) | > 12.5 µM
* C=C1CCCC(C)(C)C1(O)CC/C(C)=C/CC[C@]1(C)CC[C@@H]([C@@H](C)C(=O)OC)OO1 (stereo not given in full) | > 17.5 µM
* C=C1CCC[C@H]2[C@](C)(CCC(C)=O)[C@@H](C)CC[C@]12C | > 15 µM
* C=C1CCC[C@H]2[C@](C)(CC[C@]3(C)CC[C@@H]([C@@H](C)C(=O)O)OO3)[C@@H](C)CC[C@]12C | 2.72 µM
* C=C1CCCC(C)(C)C1CC[C@]1(C)CC[C@@H]([C@@H](C)C(=O)O)OO1 (stereo not given in full) [EPINUAPAPUIN B] | > 10 µM

The measurements presented in this section are drawn from ChEMBL document CHEMBL1141727.
